# System: MCF7
# experimental.details: Dose required for reduction in cell growth of human breast cancer MCF-7 cell line
# Type: functional
# conditions.used: read-out: ED50 (the source's name)
Each item that follows carries a reported EC50.
The reply should be a number in µg/mL, with the unit left off.

Example compounds with recorded EC50:
>>> assay_result("Cc1coc2c1C(=O)C(=O)c1c-2ccc2c(C)cccc12 [TANSHINONE I]")
0.82
>>> assay_result("Cc1coc2c1C(=O)C(=O)c1c-2ccc2c1CCCC2(C)C [TANSHINONE IIA]")
0.38

Enquiry: Please indicate EC50 recorded for C[C@H]1COC2=C1C(=O)C(=O)c1c2ccc2c1CCCC2(C)C [CRYPTOTANSHINONE]
Return: 0.41

Data credit: ChEMBL document CHEMBL1138839
